- Read-out: CD69, CD69 (gene 969)
- Experimental protocol: BSK_SAg_CD69: BioMAP Diversity Plus: SAg Assay for CD69 Biomarker Activity (AID 2283089)
- Experimental context: primary human HUVEC with PBMC; actives raise or lower the signal
Active and inactive are the calls of the source. How the source made its calls: active means hit-call score of the fitted dose curve at least 0.9, where 1 is the maximum; inactive means score below 0.9.
Your answer must be one of the following: Yes = active, No = inactive

Please indicate how the test categorized CCCOC(=O)c1ccc(O)cc1 .
No

Please indicate how the test categorized CCCOc1sc(C(=O)N2CCC(c3cc(CN)ccc3F)CC2)c(C)c1Br .
Yes

Please indicate how the test categorized NC(=O)N(O)[C@@H]1C=C[C@H](Oc2cccc(Oc3ccc(F)cc3)c2)C1 .
No

Please indicate how the test categorized COCC(C)O (stereo not given) .
No

Now examine the next entry.
Please indicate how the test categorized CC(=O)CC(C)(C)O .
No

----------
- Experimental protocol: Tanguay_ZF_120hpf_JAW_legacy: (Legacy) Oregon State University Tanguay Lab 120 Hour Post-fertilization zebrafish Assay for Jaw Malformation (AID 2283638)
Results filed as inconclusive are left out. The source made the active and inactive calls. Rule for the calls: active = hit-call score of the fitted dose curve at least 0.9, where 1 is the maximum; inconclusive = response in the unintended direction; inactive = score below 0.9.
Your answer must be one of the following: T (active), F (inactive)

// below: answered molecules
Please indicate how the test categorized NC(=O)N1C(=O)C(C(=O)c2cc(Cl)cs2)c2cc(F)c(Cl)cc21 (configuration not stated) .
F

Please indicate how the test categorized CCCOc1sc(C(=O)N2CCC(c3cc(CN)ccc3F)CC2)c(C)c1Br .
F

Please indicate how the test categorized CCC(C)(C)C1CCC(O)CC1 (configuration not stated) .
F

Please indicate how the test categorized COc1ccc([N+](=O)[O-])cc1N .
F

Please indicate how the test categorized CCCCCCCCOC(=O)CCCCCCCCC(=O)OCCCCCCCC .
F

---
Please indicate how the test categorized CCN(CC)CCNc1ccc(CNC=O)c2sc3ccc(OC)cc3c(=O)c12 .
F

Please indicate how the test categorized ClC1=C(Cl)C(Cl)(Cl)C(Cl)=C1Cl .
F

Please indicate how the test categorized CCCCC(CC)COC(=O)CCCCC(=O)OCc1ccccc1 (configuration not stated) .
F

----------
- Read-out: Cellular tumor antigen p53 (Homo sapiens)
- Experimental protocol: LTEA_HepaRG_TP53: Life Technologies and Expression Analysis (LTEA) Assay for Tumor Protein P53 (TP53) using HepaRG (AID 2283537)
- Experimental context: mRNA level, 48 h; actives raise or lower the signal
Active and inactive are the calls of the source. The calls were made as follows: active = hit-call score of the fitted dose curve at least 0.9, where 1 is the maximum; inactive = score below 0.9.
Your answer must be one of the following: 1 = active, 0 = inactive

// below: answered compounds
Please indicate how the test categorized COC(=O)CCCCC(=O)OC .
0

Please indicate how the test categorized CC(C)CCCCCCOC(=O)CCCCC(=O)OCCCCCCC(C)C .
0

Please indicate how the test categorized c1ccc2c(c1)ccc1ccccc12 .
0

Please indicate how the test categorized CCCOc1sc(C(=O)N2CCC(c3cc(CN)ccc3F)CC2)c(C)c1Br .
0

Please indicate how the test categorized CCCCCCCCCCCCN1CCCC1=O .
0

Please indicate how the test categorized CCCCCCC(=O)O .
0

Please indicate how the test categorized CN(C)C=O .
0

Please indicate how the test categorized CCc1ccc(CCOc2ccc(CC3SC(=O)NC3=O)cc2)nc1 (centres undefined) .
1

Now examine the next entry.
Please indicate how the test categorized N#C[C@@H]1CC(F)(F)CN1C(=O)CNC1CC2CCC(C1)N2c1ncccn1 (some centres undefined) .
0

----------
- Read-out: Interleukin-6 (IL6), IL6 (gene 3569)
- Experimental protocol: BSK_CASM3C_IL6: BioMAP Diversity Plus: CASM3C Assay for Interleukin-6 (IL6) Biomarker Activity for (AID 2283040)
- Experimental context: primary human coronary artery smooth muscle cells; actives raise or lower the signal
Calls of active or inactive are those of the source. The calls were made as follows: active = hit-call score of the fitted dose curve at least 0.9, where 1 is the maximum; inactive = score below 0.9.
Your answer must be one of the following: 1.0 for active, 0.0 for inactive

Please indicate how the test categorized CC(C)CCCCCCOC(=O)CCCCC(=O)OCCCCCCC(C)C .
0.0

Please indicate how the test categorized Cc1oc(-c2ccccc2)nc1CCOc1ccc(C[C@H](Nc2ccccc2C(=O)c2ccccc2)C(=O)O)cc1 .
1.0

Please indicate how the test categorized CCCOC(=O)c1ccc(O)cc1 .
0.0

Please indicate how the test categorized OC1CCC(C2CCCCC2)CC1 (stereo unspecified) .
0.0

Please indicate how the test categorized CCCCCCCCOC(=O)CCCCCCCCC(=O)OCCCCCCCC .
0.0

---
Please indicate how the test categorized OC1CCCCC1 .
0.0

Please indicate how the test categorized CCCCC(CC)COC(=O)CCCCC(=O)OCc1ccccc1 (stereo unspecified) .
0.0

Please indicate how the test categorized COC(=O)CCCCC(=O)OC .
0.0

Please indicate how the test categorized ClC1=C(Cl)C(Cl)(Cl)C(Cl)=C1Cl .
1.0

----------
- Target of assay: Estrogen receptor (Homo sapiens)
- Experimental protocol: ATG_ERa_TRANS: Attagene TRANS-FACTORIAL HepG2 Assay for human Estrogen Receptor alpha (ERa) (AID 2282970)
- Experimental context: HepG2 Attagene TRANS ERa GAL4 reporter, mRNA
Records with an inconclusive call do not appear. Calls of active or inactive are those of the source. The calls were made as follows: active = hit-call score of the fitted dose curve at least 0.9, where 1 is the maximum; inconclusive = response in the unintended direction; inactive = score below 0.9.
Your answer must be one of the following: Yes (active), No (inactive)

Please indicate how the test categorized CC(O)CO (configuration not stated) .
No

Please indicate how the test categorized CN(C)C=O .
No

---
Please indicate how the test categorized O=C(O)Cc1cc(I)c(Oc2cc(I)c(O)c(I)c2)c(I)c1 .
No

Please indicate how the test categorized CCCCCCCCCCCCc1ccccc1S(=O)(=O)O .
No

Please indicate how the test categorized CC#C[C@]1(O)CC[C@H]2[C@@H]3CCC4=CC(=O)CCC4=C3[C@@H](c3ccc(N(C)C)cc3)C[C@@]21C .
No

Please indicate how the test categorized CCCCCCCCCCCCCC[N+](C)(C)C .
No

Please indicate how the test categorized CC(C)(C)c1cccc(C(C)(C)C)c1O .
Yes

----------
- Experimental protocol: CEETOX_H295R_OHPREG: CeeTox H295R High-throughput Steroidogenesis Assay for OH-Pregnenolone (OHPREG) (AID 2283434)
- Experimental context: actives raise or lower the signal
Activity calls are given as the source filed them. Rule for the calls: active = hit-call score of the fitted dose curve at least 0.9, where 1 is the maximum; inactive = score below 0.9.
Property name: AC50

Before answering, review these 5 worked examples.
Sample CN1CCC[C@H]1c1cccnc1 — what was its AC50?
inactive

Sample O=c1c(-c2ccc(O)cc2)coc2cc(O)ccc12 — what was its AC50?
4.47 µM (active)

Sample C[C@@H]1C[C@H]2[C@@H]3CCC4=CC(=O)C=C[C@]4(C)[C@@]3(F)[C@@H](O)C[C@]2(C)[C@@]1(O)C(=O)COP(=O)(O)O — what was its AC50?
inactive

Sample CC#C[C@]1(O)CC[C@H]2[C@@H]3CCC4=CC(=O)CCC4=C3[C@@H](c3ccc(N(C)C)cc3)C[C@@]21C — what was its AC50?
inactive

Sample CCCCCCCCC(=O)O — what was its AC50?
inactive

The record that follows has no AC50 shown yet.
Sample COC(=O)CCCCC(=O)OC — what was its AC50?
inactive

----------
- Target of assay: human Adenosine Transporter (Adot), SLC29A1 (gene 2030) (UniProt Q99808)
- Sequence (Q99808 whole entry, looked up): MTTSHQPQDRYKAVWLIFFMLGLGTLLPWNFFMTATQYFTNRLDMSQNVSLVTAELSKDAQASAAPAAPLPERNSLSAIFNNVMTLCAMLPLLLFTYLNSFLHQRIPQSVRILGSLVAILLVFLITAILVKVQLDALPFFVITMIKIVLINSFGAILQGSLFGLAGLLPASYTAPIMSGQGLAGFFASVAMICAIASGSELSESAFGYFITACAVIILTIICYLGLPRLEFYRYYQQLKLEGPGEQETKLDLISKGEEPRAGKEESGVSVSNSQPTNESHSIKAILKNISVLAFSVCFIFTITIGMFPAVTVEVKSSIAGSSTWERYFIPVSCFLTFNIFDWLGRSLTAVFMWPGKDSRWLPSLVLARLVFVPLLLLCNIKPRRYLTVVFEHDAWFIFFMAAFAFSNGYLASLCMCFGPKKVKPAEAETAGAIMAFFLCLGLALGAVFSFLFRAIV
- Experimental protocol: NVS_TR_hAdoT: NovaScreen (NVS) Transporter Assay for human Adenosine Transporter (Adot) (AID 2283368)
Inconclusive results are not listed. Activity calls are given as the source filed them. Rule for the calls: active = hit-call score of the fitted dose curve at least 0.9, where 1 is the maximum; inconclusive = response in the unintended direction; inactive = score below 0.9.
Your answer must be one of the following: class 1 (active), class 0 (inactive)

// below: answered molecules
Please indicate how the test categorized CC#C[C@]1(O)CC[C@H]2[C@@H]3CCC4=CC(=O)CCC4=C3[C@@H](c3ccc(N(C)C)cc3)C[C@@]21C .
class 0

Please indicate how the test categorized O=C(O)Cc1cc(I)c(Oc2cc(I)c(O)c(I)c2)c(I)c1 .
class 0

Please indicate how the test categorized CCCOc1sc(C(=O)N2CCC(c3cc(CN)ccc3F)CC2)c(C)c1Br .
class 1

Now examine the next entry.
Please indicate how the test categorized CCC(=C(c1ccc(O)cc1)c1ccc(OCCN(C)C)cc1)c1ccccc1 .
class 0

----------
- Experimental protocol: ATG_NRF2_ARE_CIS: Attagene CIS-FACTORIAL HepG2 Assay for human Nuclear Factor Erythroid 2 Related Factor 2 (NFR2) response to Antioxidant Response Elements (ARE) (AID 2282992)
- Experimental context: HepG2 Attagene ARE/NRF2 reporter, transcription factor activity; actives raise or lower the signal
Active and inactive are the calls of the source. How the source made its calls: active means hit-call score of the fitted dose curve at least 0.9, where 1 is the maximum; inactive means score below 0.9.
Your answer must be one of the following: active, inactive

// below: answered compounds
Please indicate how the test categorized CCCOc1sc(C(=O)N2CCC(c3cc(CN)ccc3F)CC2)c(C)c1Br .
active

Please indicate how the test categorized C[C@@H]1C[C@H]2[C@@H]3CCC4=CC(=O)C=C[C@]4(C)[C@@]3(F)[C@@H](O)C[C@]2(C)[C@@]1(O)C(=O)COP(=O)(O)O .
inactive

Please indicate how the test categorized CCCCC(CC)COC(=O)CCCCC(=O)OCC(CC)CCCC (configuration not stated) .
inactive

Please indicate how the test categorized CC(O)CO (configuration not stated) .
inactive

Please indicate how the test categorized Nc1cccc2c(N)cccc12 .
active

Please indicate how the test categorized CCCCCCCCOC(=O)CCCCCCCCC(=O)OCCCCCCCC .
inactive

Now examine the next entry.
Please indicate how the test categorized CC(=O)CC(C)(C)O .
inactive
